- systemTested: human liver cathepsin B (Homo sapiens)
quantityName: IC50

Request: Suppose we examine the molecule CC(C)(C)OC(=O)N[C@H]1CCCCC/C=C\[C@@H]2C[C@@]2(C(=O)NS(=O)(=O)C2CC2)NC(=O)[C@@H]2C[C@@H](OC(=O)c3ccc(C#N)cc3)CN2C1=O ; what IC50 value has been reported?
Response: ≥ 100 µM

* * *

- systemTested: human neutrophil elastase (HNE) (Homo sapiens, UniProt P08246)
- Sequence (P08246 30-267): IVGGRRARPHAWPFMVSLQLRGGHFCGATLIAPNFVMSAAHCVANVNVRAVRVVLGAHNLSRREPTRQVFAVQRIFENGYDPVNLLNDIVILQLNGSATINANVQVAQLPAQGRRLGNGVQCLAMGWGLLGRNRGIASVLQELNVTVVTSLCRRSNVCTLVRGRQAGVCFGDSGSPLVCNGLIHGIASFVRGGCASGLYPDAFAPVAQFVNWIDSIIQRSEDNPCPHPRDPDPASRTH
- protocol: Specificity assay, neutrophil elastase
- conditions: read-out: HLE activity in the specificity assays
quantityName: IC50

Request: Suppose we examine the molecule CC(C)(C)OC(=O)N[C@H]1CCCCC/C=C\[C@@H]2C[C@@]2(C(=O)NS(=O)(=O)C2CC2)NC(=O)[C@@H]2C[C@@H](OC(=O)c3ccc(C#N)cc3)CN2C1=O [Compound 26] ; what IC50 value has been reported?
Response: > 100 µM

* * *

Exercise: state measured IC50 for each of the molecules provided.
- systemTested: HCV NS3/4A protease complex, BMS strain (UniProt P27958, species not given/STRAIN_BMS)
- Construct: said of H77 and J4L6S; fused on or other part: A three-lysine solubilising tail at the C-terminus of NS4A and a His tag (pET21b, Ni-NTA purification)
- Sequence (P27958 1027-1657, change not shown, one chain of several): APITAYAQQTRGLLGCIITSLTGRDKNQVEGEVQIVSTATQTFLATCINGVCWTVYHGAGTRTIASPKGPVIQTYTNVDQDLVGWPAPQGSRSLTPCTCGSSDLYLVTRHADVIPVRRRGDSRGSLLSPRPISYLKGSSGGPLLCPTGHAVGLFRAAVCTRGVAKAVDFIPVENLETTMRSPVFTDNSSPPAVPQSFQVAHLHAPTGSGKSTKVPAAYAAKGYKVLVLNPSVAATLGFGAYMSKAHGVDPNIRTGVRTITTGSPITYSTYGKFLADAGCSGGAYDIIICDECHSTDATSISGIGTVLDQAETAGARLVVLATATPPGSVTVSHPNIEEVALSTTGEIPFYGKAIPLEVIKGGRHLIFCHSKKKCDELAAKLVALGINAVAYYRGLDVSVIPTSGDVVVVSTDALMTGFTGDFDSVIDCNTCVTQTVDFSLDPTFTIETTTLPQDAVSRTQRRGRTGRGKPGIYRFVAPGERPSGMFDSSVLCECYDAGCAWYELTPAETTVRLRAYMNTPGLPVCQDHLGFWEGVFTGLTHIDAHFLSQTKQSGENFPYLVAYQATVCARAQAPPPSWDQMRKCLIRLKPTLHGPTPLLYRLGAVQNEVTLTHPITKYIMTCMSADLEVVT
- protocol: FRET peptide assay to monitor HCV NS3/4A proteolytic activity (BMS strain)
- Type: biochemical, Hepatitis C virus (genotype 1a)
- conditions: NS3/4A BMS strain; read-out: IC50 Range

CC(C)(C)OC(=O)N[C@H]1CCCOC/C=C\[C@@H]2C[C@@]2(C(=O)NS(=O)(=O)C2CC2)NC(=O)[C@@H]2C[C@@H](OC(=O)NCC3CCCCC3)CN2C1=O [Compound 37] ... 100 to 1000 nM
CC(C)(C)OC(=O)N[C@H]1COCCC/C=C\[C@@H]2C[C@@]2(C(=O)NS(=O)(=O)C2CC2)NC(=O)[C@@H]2C[C@@H](OC(=O)Nc3ccc(Oc4ccccc4)cc3)CN2C1=O [Compound 41] ... > 1000 nM
COc1ccc(C(=O)O[C@@H]2C[C@H]3C(=O)N[C@]4(C(=O)NS(=O)(=O)C5CC5)C[C@H]4/C=C\COCCC[C@H](NC(=O)OC(C)(C)C)C(=O)N3C2)cc1 [Compound 10] ... < 100 nM
Cc1cc(C(=O)O[C@@H]2C[C@H]3C(=O)N[C@]4(C(=O)NS(=O)(=O)C5CC5)C[C@H]4/C=C\CCCCC[C@H](NC(=O)OC(C)(C)C)C(=O)N3C2)n(C)n1 [Compound 35] ... < 100 nM

List IC50 for every entry below, keeping the order given.
1. CC(C)(C)OC(=O)N[C@H]1CCCOC/C=C\[C@@H]2C[C@@]2(C(=O)NS(=O)(=O)C2CC2)NC(=O)[C@@H]2C[C@@H](OC(=O)NC3CCCCC3)CN2C1=O [Compound 36]
2. CCC(C(=O)O[C@@H]1C[C@H]2C(=O)N[C@]3(C(=O)NS(=O)(=O)C4CC4)C[C@H]3/C=C\COCCC[C@H](NC(=O)OC(C)(C)C)C(=O)N2C1)c1ccccc1 (mixture of isomers) [Compound 5]
3. CC(C)(C)OC(=O)N[C@H]1CCCCC/C=C\[C@@H]2C[C@@]2(C(=O)NS(=O)(=O)C2CC2)NC(=O)[C@@H]2C[C@@H](OC(=O)c3cccc(OC(F)(F)F)c3)CN2C1=O [Compound 17]
4. COc1ccc(C(=O)O[C@@H]2C[C@H]3C(=O)N[C@]4(C(=O)NS(=O)(=O)C5CC5)C[C@H]4/C=C\CCCCC[C@H](NC(=O)OC(C)(C)C)C(=O)N3C2)cc1 [Compound 20]

Response:
1: 100 to 1000 nM; 2: < 100 nM; 3: < 100 nM; 4: < 100 nM

List IC50 for every entry below, keeping the order given.
1. CC(C)(C)OC(=O)N[C@H]1COCCC/C=C\[C@@H]2C[C@@]2(C(=O)NS(=O)(=O)C2CC2)NC(=O)[C@@H]2C[C@@H](OC(=O)c3ccc(Oc4ccccc4)cc3)CN2C1=O [Compound 14]
2. CC(C)(C)OC(=O)N[C@H]1CCCCC/C=C\[C@@H]2C[C@@]2(C(=O)NS(=O)(=O)C2CC2)NC(=O)[C@@H]2C[C@@H](OC(=O)c3ccccc3)CN2C1=O [Compound 15]

Response:
["100 to 1000 nM", "< 100 nM"]
